Biological target: Mitogen-activated protein kinase 1 (Homo sapiens)
Sequence (P28482 whole entry): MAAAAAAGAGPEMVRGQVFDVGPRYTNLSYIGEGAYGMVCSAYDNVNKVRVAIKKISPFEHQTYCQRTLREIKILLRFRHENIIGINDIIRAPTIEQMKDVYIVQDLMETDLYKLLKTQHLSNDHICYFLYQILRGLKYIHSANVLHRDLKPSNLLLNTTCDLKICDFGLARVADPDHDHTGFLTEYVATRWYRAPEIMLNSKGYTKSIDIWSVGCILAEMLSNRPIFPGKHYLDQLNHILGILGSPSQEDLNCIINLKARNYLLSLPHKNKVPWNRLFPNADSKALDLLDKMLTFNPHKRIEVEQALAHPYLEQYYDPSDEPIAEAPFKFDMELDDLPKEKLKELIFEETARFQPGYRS
Assay: Inhibition of Mitogen-activated protein kinase 1 activity
PROPERTY LABEL: pIC50
Remember the convention: pIC50 equals -log10 of concentration in molar.

Given "O=C(Cc1ccc2ccccc2c1)Nc1cc(C2CC2)n[nH]1" , state its recorded pIC50.
5.34

* * *

Molecular target: Cyclin-dependent kinase 5/CDK5 activator 1 (Homo sapiens, UniProt Q00535)
Sequence (Q00535 whole entry): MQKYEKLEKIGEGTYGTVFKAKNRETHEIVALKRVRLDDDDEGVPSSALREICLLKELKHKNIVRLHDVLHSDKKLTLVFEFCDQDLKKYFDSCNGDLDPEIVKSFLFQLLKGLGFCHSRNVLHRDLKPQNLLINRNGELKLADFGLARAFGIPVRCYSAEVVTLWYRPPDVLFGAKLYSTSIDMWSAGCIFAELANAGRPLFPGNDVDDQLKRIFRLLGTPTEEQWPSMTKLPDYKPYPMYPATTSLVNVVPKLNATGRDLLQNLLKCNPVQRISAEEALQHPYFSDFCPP
Sequence (Q15078 whole entry, further chain): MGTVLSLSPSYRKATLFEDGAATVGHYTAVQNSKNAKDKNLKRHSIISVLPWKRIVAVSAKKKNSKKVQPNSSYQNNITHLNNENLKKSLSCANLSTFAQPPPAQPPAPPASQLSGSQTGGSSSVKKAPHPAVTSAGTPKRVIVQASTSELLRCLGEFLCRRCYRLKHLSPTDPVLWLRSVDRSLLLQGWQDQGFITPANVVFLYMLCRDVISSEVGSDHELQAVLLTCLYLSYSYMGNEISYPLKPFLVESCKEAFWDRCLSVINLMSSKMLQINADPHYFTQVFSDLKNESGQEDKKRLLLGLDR
Test: Inhibition of Cyclin-dependent kinase 5-p35nck5a
PROPERTY LABEL: IC50 (µM)
Reply numerically in µM, unit not repeated.

# lookup: IC50 of "O=C(Cc1ccc2ccccc2c1)Nc1cc(C2CC2)n[nH]1"
0.114

* * *

Assay: Oral bioavailability after oral (po) administration at a dose of 10 mg/kg was measured in rats
Format: ADME, organism-based
Settings: rat, in vivo, read-out: Bioavailabiility
PROPERTY LABEL: bioavailability
Note: state the figure and append the unit.

Recorded bioavailability of "O=C(Cc1ccc2ccccc2c1)Nc1cc(C2CC2)n[nH]1" , please.
89.8%

* * *

System: Rattus norvegicus
Assay: Maximal concentration in male Sprague-Dawley rats after 5 mg/kg intravenous dose
Format: ADME, organism-based
Set-up: dose 5 mg/kg, route intravenous
Settings: in vivo
PROPERTY LABEL: Cmax
Please report the result as a number followed by the unit.

Sample "O=C(Cc1ccc2ccccc2c1)Nc1cc(C2CC2)n[nH]1" — what was its Cmax?
19.4 µM

* * *

Target: Insulin-like growth factor 1 receptor (Homo sapiens)
Sequence (P08069 31-736 limits assumed): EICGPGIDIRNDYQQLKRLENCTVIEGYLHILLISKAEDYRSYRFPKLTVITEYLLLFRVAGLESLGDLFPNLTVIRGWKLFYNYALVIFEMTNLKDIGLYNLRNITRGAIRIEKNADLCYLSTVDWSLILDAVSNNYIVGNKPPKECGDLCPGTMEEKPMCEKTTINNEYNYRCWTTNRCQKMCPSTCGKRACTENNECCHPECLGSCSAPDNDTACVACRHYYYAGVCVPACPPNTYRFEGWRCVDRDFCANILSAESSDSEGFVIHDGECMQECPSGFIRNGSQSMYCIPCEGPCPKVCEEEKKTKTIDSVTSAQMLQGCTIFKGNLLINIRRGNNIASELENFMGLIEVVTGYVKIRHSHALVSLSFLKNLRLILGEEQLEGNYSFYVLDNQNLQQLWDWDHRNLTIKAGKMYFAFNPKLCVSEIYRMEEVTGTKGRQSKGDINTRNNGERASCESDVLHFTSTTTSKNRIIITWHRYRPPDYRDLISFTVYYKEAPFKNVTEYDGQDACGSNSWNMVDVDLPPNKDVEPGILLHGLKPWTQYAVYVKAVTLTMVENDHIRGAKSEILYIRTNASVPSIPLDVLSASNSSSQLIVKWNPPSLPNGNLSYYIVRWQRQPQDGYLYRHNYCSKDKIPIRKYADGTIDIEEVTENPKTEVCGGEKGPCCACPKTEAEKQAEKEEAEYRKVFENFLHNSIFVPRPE
Sequence (P08069 741-1367 limits assumed): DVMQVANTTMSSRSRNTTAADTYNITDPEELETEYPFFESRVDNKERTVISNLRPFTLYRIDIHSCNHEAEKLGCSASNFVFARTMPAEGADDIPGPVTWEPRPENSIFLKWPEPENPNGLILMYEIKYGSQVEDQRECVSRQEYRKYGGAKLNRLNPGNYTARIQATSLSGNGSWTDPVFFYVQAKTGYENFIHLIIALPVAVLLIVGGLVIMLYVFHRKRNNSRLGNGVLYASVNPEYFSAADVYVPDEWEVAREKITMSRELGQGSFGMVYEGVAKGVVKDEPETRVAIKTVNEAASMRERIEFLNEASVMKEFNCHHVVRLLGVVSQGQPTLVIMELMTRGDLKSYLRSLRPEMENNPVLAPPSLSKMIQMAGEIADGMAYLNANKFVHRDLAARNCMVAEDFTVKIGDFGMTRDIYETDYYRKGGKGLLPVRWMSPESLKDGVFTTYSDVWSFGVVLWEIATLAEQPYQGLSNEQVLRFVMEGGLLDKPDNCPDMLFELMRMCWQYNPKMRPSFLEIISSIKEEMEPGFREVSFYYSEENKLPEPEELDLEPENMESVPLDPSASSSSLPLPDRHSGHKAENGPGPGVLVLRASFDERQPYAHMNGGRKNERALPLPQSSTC
PROPERTY LABEL: IC50

Hi! What's the reported IC50 for "O=C(Cc1ccc2ccccc2c1)Nc1cc(C2CC2)n[nH]1" on Insulin-like growth factor 1 receptor (Homo sapiens)?
> 10 µM

* * *

Test: Total body clearance was evaluated for the compound after i.v. administration at a dose of 5 mg/kg was measured in rats
Assay type: ADME, organism-based
Design: dose 5 mg/kg, route intravenous
Conditions: rat, in vivo, iv
PROPERTY LABEL: clearance (mL/min/kg)
Quick reminder: number only, in mL/min/kg, skip the unit.

Look up clearance: "O=C(Cc1ccc2ccccc2c1)Nc1cc(C2CC2)n[nH]1"
13.5

* * *

Biological target: CDC7/DBF4 (Cell division cycle 7-related protein kinase/Activator of S phase kinase) (Homo sapiens, UniProt O00311)
Assay: Inhibition of CDC7/DBF4 kinase activity
PROPERTY LABEL: IC50

Return reported IC50; argument: "O=C(Cc1ccc2ccccc2c1)Nc1cc(C2CC2)n[nH]1"
> 10 µM

* * *

Tested on: Rattus norvegicus
Assay: Maximal concentration in male Sprague-Dawley rats after 10 mg/kg oral dose
Type: ADME, organism-based
Design: dose 10 mg/kg, route oral
Details: in vivo
PROPERTY LABEL: Cmax

Bench note: what Cmax did "O=C(Cc1ccc2ccccc2c1)Nc1cc(C2CC2)n[nH]1" show?
9.63 µM

* * *

Target: Serine/threonine-protein kinase Chk1 (Homo sapiens)
Sequence (O14757 whole entry): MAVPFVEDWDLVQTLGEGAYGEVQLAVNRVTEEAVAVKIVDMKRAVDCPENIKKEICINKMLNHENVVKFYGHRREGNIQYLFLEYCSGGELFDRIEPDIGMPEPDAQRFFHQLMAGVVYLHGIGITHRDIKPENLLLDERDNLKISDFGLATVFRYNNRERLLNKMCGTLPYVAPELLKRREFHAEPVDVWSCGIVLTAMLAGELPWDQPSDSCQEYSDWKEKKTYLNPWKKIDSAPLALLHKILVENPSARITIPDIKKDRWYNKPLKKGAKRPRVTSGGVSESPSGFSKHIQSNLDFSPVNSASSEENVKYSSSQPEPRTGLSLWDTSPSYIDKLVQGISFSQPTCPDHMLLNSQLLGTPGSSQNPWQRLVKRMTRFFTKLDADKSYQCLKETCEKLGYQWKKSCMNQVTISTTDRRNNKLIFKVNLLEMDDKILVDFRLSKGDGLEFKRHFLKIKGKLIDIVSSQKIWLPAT
PROPERTY LABEL: IC50

Any idea what its IC50 is? The compound is "O=C(Cc1ccc2ccccc2c1)Nc1cc(C2CC2)n[nH]1"
> 10 µM

* * *

Test: In vivo retention time was evaluated for the compound after i.v. administration at a dose of 5 mg/kg was measured in rats
Format: ADME, organism-based
Parameters: dose 5 mg/kg, route intravenous
Conditions: rat, iv
PROPERTY LABEL: MRT (h)
Report the value in h with no unit label.

What does the data say about its MRT? Entry: "O=C(Cc1ccc2ccccc2c1)Nc1cc(C2CC2)n[nH]1"
1.31

* * *

Target: 3-phosphoinositide-dependent protein kinase 1 (Homo sapiens)
Sequence (O15530 whole entry): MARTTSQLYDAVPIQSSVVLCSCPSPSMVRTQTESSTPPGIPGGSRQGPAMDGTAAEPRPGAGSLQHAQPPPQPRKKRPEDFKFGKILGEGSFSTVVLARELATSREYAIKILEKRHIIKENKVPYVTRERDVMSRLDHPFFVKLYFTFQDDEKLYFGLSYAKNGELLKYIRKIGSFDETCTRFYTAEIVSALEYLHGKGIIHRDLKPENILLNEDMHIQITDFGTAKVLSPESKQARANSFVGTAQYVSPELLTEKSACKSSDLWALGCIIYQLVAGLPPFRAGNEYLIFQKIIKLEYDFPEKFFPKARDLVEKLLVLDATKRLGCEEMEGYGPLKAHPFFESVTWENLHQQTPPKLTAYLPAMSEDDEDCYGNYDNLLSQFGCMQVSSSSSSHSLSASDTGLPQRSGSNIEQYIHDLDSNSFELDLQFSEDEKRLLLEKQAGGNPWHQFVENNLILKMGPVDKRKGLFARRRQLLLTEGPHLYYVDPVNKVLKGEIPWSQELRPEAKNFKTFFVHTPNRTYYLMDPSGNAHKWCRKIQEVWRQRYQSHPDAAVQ
pIC50: −log10 of the molar value.
PROPERTY LABEL: pIC50

Identify the measured pIC50 of "O=C(Cc1ccc2ccccc2c1)Nc1cc(C2CC2)n[nH]1" for 3-phosphoinositide-dependent protein kinase 1 (Homo sapiens).
< 5.00

* * *

Target: Serine/threonine-protein kinase PLK1 (Homo sapiens)
Sequence (P53350 whole entry): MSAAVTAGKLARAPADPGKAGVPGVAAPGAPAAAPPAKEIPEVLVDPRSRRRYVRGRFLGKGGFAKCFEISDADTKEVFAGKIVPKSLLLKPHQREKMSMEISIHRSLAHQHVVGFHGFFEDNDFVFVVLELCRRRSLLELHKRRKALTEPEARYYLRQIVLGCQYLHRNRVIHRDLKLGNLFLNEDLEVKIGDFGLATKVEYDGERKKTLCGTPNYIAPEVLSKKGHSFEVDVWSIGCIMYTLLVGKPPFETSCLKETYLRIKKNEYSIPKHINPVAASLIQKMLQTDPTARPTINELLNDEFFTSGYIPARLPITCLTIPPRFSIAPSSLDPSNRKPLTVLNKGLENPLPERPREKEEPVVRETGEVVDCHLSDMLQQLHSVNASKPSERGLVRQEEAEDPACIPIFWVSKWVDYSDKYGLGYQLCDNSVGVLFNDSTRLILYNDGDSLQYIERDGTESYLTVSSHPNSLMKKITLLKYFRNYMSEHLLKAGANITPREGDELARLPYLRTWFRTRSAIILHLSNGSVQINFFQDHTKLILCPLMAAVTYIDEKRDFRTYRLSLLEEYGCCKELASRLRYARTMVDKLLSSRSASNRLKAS
PROPERTY LABEL: IC50

What reported IC50 corresponds to "O=C(Cc1ccc2ccccc2c1)Nc1cc(C2CC2)n[nH]1" on Serine/threonine-protein kinase PLK1 (Homo sapiens)?
> 10 µM

* * *

Molecular target: Cyclin-dependent kinase 2/cyclin A (Homo sapiens)
Experiment: In vitro inhibitory concentration against cyclin-dependent kinase 2-cyclin A complex using ATP/P33gamma-ATP mix as radioligand
PROPERTY LABEL: log10 IC50 (log10 of the value in µM)
Quick note: numbers are log10 of IC50, with µM as the unit.

Solved cases below.
Look at this compound and give its reported log10 IC50. "O=C(Nc1cc(C2CCCC2)[nH]n1)c1ccc(Br)cc1"
-1.30

Endpoint output: log10 IC50 of "O=C(Nc1cc(C2CC2)[nH]n1)c1cccc(Cl)c1" . Value?
0.00

Looking for the measured log10 IC50 of "Cc1cc(NC(=O)c2ccccc2)n[nH]1" , can you help?
0.18

Returns the measured log10 IC50 for the input compound. Input: "O=C(Nc1cc(C2CCCCC2)[nH]n1)c1ccc(Br)cc1"
0.00

More entries:
Which log10 IC50 is reported for this compound? "NC(=O)c1ccc(CC(=O)Nc2cc(C3CC3)[nH]n2)cc1"
-1.13

Fill in the blank: the reported log10 IC50 of "O=C(Nc1cc(C2CC2)[nH]n1)c1cccc(C(F)(F)F)c1" is ____.
-0.30

Looking for the measured log10 IC50 of "O=C(Cc1ccccc1)Nc1cc(C2CC2)[nH]n1" , can you help?
-1.32

Bench note: what log10 IC50 did "O=C(Nc1cc(C2CCC2)[nH]n1)c1ccc(Br)cc1" show?
-1.05

Which log10 IC50 value is on record for "O=C(Nc1cc(C2CC2)[nH]n1)c1ccc(Cl)c(Cl)c1" ?
-1.08

Need log10 IC50, item "O=C(Nc1cc(C2CC2)[nH]n1)c1ccc(Br)cc1"
-1.47

* * *

Biological target: Mitogen-activated protein kinase 14 (Homo sapiens)
Sequence (Q16539 whole entry): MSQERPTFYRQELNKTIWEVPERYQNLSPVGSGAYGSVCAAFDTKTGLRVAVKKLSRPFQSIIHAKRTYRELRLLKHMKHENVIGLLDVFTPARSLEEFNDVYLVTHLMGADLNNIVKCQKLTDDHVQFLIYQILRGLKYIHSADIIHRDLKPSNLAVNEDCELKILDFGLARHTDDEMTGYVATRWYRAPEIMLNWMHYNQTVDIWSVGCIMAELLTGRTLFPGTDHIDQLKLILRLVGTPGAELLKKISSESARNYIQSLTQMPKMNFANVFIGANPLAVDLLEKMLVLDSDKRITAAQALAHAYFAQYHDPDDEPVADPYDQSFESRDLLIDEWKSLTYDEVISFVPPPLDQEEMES
Experiment: Inhibition of Mitogen-activated protein kinase p38 alpha
PROPERTY LABEL: IC50

Entry "O=C(Cc1ccc2ccccc2c1)Nc1cc(C2CC2)n[nH]1" : reported IC50 = ?
> 10 µM

* * *

Experiment: Solubility of compound was determined in buffer at a pH of 7
Type: physicochemical
Settings: pH 7
PROPERTY LABEL: solubility (µM)
Could you give me the number in µM? Just the number is fine.

Tell me the measured solubility of "O=C(Cc1ccc2ccccc2c1)Nc1cc(C2CC2)n[nH]1" , please.
22

* * *

Target: Inhibitor of nuclear factor kappa-B kinase subunit beta (Homo sapiens)
Sequence (O14920 whole entry): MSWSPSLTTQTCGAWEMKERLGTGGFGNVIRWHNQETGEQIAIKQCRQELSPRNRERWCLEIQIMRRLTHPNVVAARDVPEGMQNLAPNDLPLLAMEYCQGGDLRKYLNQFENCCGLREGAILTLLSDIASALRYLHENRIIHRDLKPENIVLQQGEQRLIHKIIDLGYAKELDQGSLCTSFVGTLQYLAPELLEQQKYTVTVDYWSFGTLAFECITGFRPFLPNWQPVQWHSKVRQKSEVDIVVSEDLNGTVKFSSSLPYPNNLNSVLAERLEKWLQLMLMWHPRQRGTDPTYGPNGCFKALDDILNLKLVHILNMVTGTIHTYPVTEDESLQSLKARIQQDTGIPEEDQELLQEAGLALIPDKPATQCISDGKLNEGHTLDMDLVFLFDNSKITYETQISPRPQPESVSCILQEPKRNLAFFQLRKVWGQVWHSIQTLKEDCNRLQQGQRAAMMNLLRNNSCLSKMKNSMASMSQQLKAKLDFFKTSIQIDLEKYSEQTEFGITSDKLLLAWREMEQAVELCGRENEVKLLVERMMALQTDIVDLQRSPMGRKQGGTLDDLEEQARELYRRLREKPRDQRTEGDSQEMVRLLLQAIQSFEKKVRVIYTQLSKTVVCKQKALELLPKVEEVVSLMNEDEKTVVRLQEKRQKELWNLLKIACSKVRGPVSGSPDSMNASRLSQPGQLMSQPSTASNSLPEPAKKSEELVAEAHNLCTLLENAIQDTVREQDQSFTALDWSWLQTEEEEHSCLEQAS
Test: Inhibition of I-kappa-B-kinase beta activity
PROPERTY LABEL: IC50

Data request, read-out IC50, for "O=C(Cc1ccc2ccccc2c1)Nc1cc(C2CC2)n[nH]1"
> 10 µM

* * *

Biological target: Cyclin-dependent kinase 2/cyclin A (Homo sapiens, UniProt P24941)
Assay: In vitro inhibitory concentration against cyclin-dependent kinase 2-cyclin A complex using ATP/P33gamma-ATP mix as radioligand
# key: entry, value: IC50

Request: IC50, test system Cyclin-dependent kinase 2/cyclin A (Homo sapiens, UniProt P24941), entry "O=C(Nc1cc(Cc2ccccc2)[nH]n1)c1ccc(Br)cc1"
> 10000 nM

Continuing:
Form field - read-out: IC50; system: Cyclin-dependent kinase 2/cyclin A (Homo sapiens, UniProt P24941); submitted item: CCC(C)c1cc(NC(=O)c2ccc(Br)cc2)[nH]n1 (stereo unspecified)
> 10000 nM

What reported IC50 corresponds to "COc1ccc(C(=O)Nc2cc(C3CC3)[nH]n2)cc1" on Cyclin-dependent kinase 2/cyclin A (Homo sapiens, UniProt P24941)?
705 nM

Entry "Cc1cccc(-c2ccc(CC(=O)Nc3cc(C4CC4)[nH]n3)cc2)c1" , system Cyclin-dependent kinase 2/cyclin A (Homo sapiens, UniProt P24941): what IC50 was measured?
9 nM

# query: IC50 | item "NC(=O)c1ccc(-c2ccc(CC(=O)Nc3cc(C4CC4)[nH]n3)cc2)cc1" | system: Cyclin-dependent kinase 2/cyclin A (Homo sapiens, UniProt P24941)
4 nM
